From: PubChem BioAssay (EPA / NIEHS)

Read-out: Macrophage colony-stimulating factor (MCSF), CSF1 (gene 1435)
Test: BSK_hDFCGF_MCSF: BioMAP Diversity Plus: hDFCGF Assay for Macrophage colony-stimulating factor (MCSF) Biomarker Activity (AID 2283060)
Conditions: primary human foreskin fibroblasts; actives raise or lower the signal
The source made the active and inactive calls. How the source made its calls: active means hit-call score of the fitted dose curve at least 0.9, where 1 is the maximum; inactive means score below 0.9.
Write down the outcome that applies. Available outcomes: active, inactive

Dear colleague, could you share the recorded outcome for COc1ccc(/C=C/S(=O)(=O)NC(=O)c2ccc(C)cc2Cl)cc1 when you have a moment?
inactive

Also CCn1nc(Cc2ccccc2)cc1C1CCN(C[C@H]2C[C@H](N(C)[C@@H](C(=O)O)C(C)C)C[C@@H]2c2cccc(F)c2)CC1 ?
inactive

Can you handle COCCOCCOCCOC next?
inactive

Field entry: O=C(O)c1cc(N=Nc2ccc(S(=O)(=O)Nc3ccccn3)cc2)ccc1O
inactive

Next up: O=P(OC(CCl)CCl)(OC(CCl)CCl)OC(CCl)CCl
inactive

// next record Nc1cccc(N)c1
inactive

Likewise for On1ccccc1=S ?
active

Same question for O=C(NS(=O)(=O)/C=C/c1ccccc1)c1ccc(F)cc1Cl please.
inactive

Another molecule to check: CC(C)(O)c1coc(S(=O)(=O)NC(=O)Nc2c3c(cc4c2CCC4)CCC3)c1
inactive
